Tested on: Pseudomonas aeruginosa
Assay: Antibacterial activity against Pseudomonas aeruginosa MTCC 1688 after overnight incubation by broth dilution method
Format: functional
Measurement name: MIC99 (µg/mL)
Answers are plain numbers, in µg/mL.

Example entries and their recorded answers appear below.
Compound	Tested target	Readout units	Reported measurement
O=C(Nn1c(CNN2C(=O)C(Cl)C2c2ccccc2)nc2ccccc2c1=O)c1ccncc1 (centres undefined)	Pseudomonas aeruginosa	µg/mL	125
O=C(O)c1cn(C2CC2)c2cc(N3CCNCC3)c(F)cc2c1=O	Pseudomonas aeruginosa	µg/mL	25
O=C(Nn1c(CNN2C(=O)C(Cl)C2c2ccccc2O)nc2ccccc2c1=O)c1ccncc1 (centres undefined)	Pseudomonas aeruginosa	µg/mL	125

Let's switch to this compound now.
(Q) Identify the measured MIC99 of "O=C(N[C@H](CO)[C@H](O)c1ccc([N+](=O)[O-])cc1)C(Cl)Cl" for Pseudomonas aeruginosa.
(A) 50
